Biological target: full-length beta-Catenin (Uniprot ID P35222) (Homo sapiens, UniProt P35222)
Construct: 10 nM full-length beta-Catenin (Uniprot ID P35222)
Sequence (P35222 whole entry): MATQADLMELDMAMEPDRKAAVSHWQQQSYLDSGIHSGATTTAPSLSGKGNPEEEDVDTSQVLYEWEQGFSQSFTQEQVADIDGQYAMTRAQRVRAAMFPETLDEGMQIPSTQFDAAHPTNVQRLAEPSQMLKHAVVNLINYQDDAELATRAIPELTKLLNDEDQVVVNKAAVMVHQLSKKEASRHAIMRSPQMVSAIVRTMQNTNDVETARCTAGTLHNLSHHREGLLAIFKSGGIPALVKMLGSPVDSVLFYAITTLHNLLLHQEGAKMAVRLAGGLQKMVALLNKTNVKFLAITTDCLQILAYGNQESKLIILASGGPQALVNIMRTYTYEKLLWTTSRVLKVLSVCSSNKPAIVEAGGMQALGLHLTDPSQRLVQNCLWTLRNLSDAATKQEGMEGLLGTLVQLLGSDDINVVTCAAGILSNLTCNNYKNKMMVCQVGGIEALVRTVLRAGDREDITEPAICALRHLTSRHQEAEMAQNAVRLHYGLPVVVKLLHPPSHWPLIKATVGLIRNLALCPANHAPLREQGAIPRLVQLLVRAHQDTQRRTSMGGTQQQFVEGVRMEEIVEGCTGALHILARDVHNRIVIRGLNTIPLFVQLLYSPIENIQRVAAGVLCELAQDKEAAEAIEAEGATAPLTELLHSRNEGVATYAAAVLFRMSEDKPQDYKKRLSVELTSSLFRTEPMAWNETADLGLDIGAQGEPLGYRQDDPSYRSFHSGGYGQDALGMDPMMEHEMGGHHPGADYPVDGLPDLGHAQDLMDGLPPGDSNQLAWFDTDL
Assay: Fluorescence polarization IC50 (beta-catenin / 5FAM-TCF4 10-53 competition)
Format: binding
Details: fluorescence polarization, beta-catenin; read-out: FP EC50
In this section we review reported pIC50 values for a set of compounds.
By convention, pIC50 is the negative base-10 log of a molar concentration.

Use the examples below as a reference point.
What pIC50 value was documented for this compound, CCN(CC(=O)O)C[C@@H]1NC(=O)[C@H](CC(=O)O)NC(=O)C2(CCCC=CCCCOC(=O)N3CC[C@@](C(=O)N[C@@H](Cc4ccsc4)C(=O)N[C@@H](Cc4csc5ccccc45)C(=O)N[C@@H](CCC(N)=O)C(N)=O)(C3)NC(=O)[C@H](CC(N)=O)NC(=O)[C@H](Cc3ccccc3)NC(=O)[C@H](C)NC(=O)[C@H](C)NC1=O)CCCC=CC[C@]1(CCCN1C(C)=O)C(=O)N[C@@H](CC(=O)O)C(=O)N[C@@H](CC(C)(C)C)C(=O)N2 (stereo partly drawn) [I-965] ?
5.75

What pIC50 value was documented for this compound, CC(=O)N1CCC[C@]12CC=CCCCC1(CCCC=CCCCOC(=O)N3CC[C@@](C(=O)N[C@@H](Cc4ccccc4Cl)C(=O)N[C@@H](Cc4csc5ccccc45)C(=O)N[C@@H](CCC(N)=O)C(N)=O)(C3)NC(=O)[C@H](CC(C)C)NC(=O)[C@H](Cc3ccccc3)NC(=O)[C@H](C)NC(=O)[C@H](C)NC(=O)[C@H](CCC(=O)O)NC(=O)[C@H](CC(=O)O)NC1=O)NC(=O)[C@H](CC1CCCCC1)NC(=O)[C@H](CC(=O)O)NC2=O (stereo partly drawn) [I-1078] ?
6.45

What pIC50 value was documented for this compound, CCN(CC(=O)O)C[C@@H]1NC(=O)[C@H](CC(=O)O)NC(=O)C2(CCCC=CCCCOC(=O)N3CC[C@@](C(=O)N[C@@H](Cc4ccsc4)C(=O)N[C@@H](Cc4csc5ccccc45)C(=O)N[C@@H](CCC(N)=O)C(N)=O)(C3)NC(=O)[C@H]([C@@H](C)O)NC(=O)[C@H](Cc3ccccc3)NC(=O)[C@H](C)NC(=O)[C@H](C)NC1=O)CCCC=CC[C@]1(CCCN1C(C)=O)C(=O)N[C@@H](CC(=O)O)C(=O)N[C@@H](CC(C)(C)C)C(=O)N2 (stereo partly drawn) [I-968] ?
5.53

What pIC50 value was documented for this compound, CC(=O)N1CCC[C@]12CC=CCCCC1(CCCC=CCCCCCC[C@@](C)(C(=O)N[C@@H](Cc3ccccc3Cl)C(=O)N[C@@H](Cc3csc4ccccc34)C(=O)N[C@@H](CCC(N)=O)C(N)=O)NC(=O)[C@H]([C@@H](C)O)NC(=O)[C@H](Cc3ccccc3)NC(=O)[C@H](C)NC(=O)[C@H](C)NC(=O)[C@H](CCC(=O)O)NC(=O)[C@H](CC(=O)O)NC1=O)NC(=O)[C@H](CC(C)(C)C)NC(=O)[C@H](CC(=O)O)NC2=O (stereo partly drawn) [I-1089] ?
7.92

What pIC50 value was documented for this compound, CC(=O)N1CCC[C@]12CC=CCCCC1(CCCC=CCCCCCC[C@@](C)(C(=O)N[C@@H](Cc3ccccc3)C(=O)N[C@@H](Cc3c[nH]c4ccccc34)C(=O)N[C@@H](Cc3c[nH]cn3)C(N)=O)NC(=O)[C@H](CCC(N)=O)NC(=O)[C@H](Cc3ccccc3)NC(=O)[C@H](C)NC(=O)[C@H](C)NC(=O)[C@H](CCC(=O)O)NC(=O)[C@H](CC(=O)O)NC1=O)NC(=O)[C@H](C)NC(=O)[C@H](CC(=O)O)NC2=O (stereo partly drawn) ?
5.79

What pIC50 value was documented for this compound, CC[C@H](C)[C@@H]1NC(=O)[C@H](CC(=O)O)NC(=O)[C@]2(CC=CCCCC3(CCCC=CCOC(=O)N(C)CCC[C@@](C)(C(=O)N[C@@H](Cc4ccccc4)C(=O)N[C@@H](Cc4c[nH]c5ccccc45)C(=O)N[C@@H](Cc4c[nH]cn4)C(N)=O)NC(=O)[C@H](CCC(N)=O)NC(=O)[C@H](Cc4ccccc4)NC(=O)[C@H](C)NC(=O)[C@H](C)NC(=O)[C@H](CC(=O)O)NC(=O)[C@H](CC(=O)O)NC3=O)NC1=O)CCCN2C(C)=O (stereo partly drawn) [I-188] ?
5.80

More entries:
What pIC50 value was documented for this compound, CC(=O)N1CCC[C@]12CC=CCCCC1(CCCC=CCCCCOC(=O)N3CC[C@@](C(=O)N[C@@H](Cc4ccsc4)C(=O)N[C@@H](Cc4csc5ccccc45)C(=O)N[C@@H](Cc4c[nH]cn4)C(=O)N[C@@H](C)C(N)=O)(C3)NC(=O)[C@H](CC(N)=O)NC(=O)[C@H](Cc3ccccc3)NC(=O)[C@H](C)NC(=O)[C@H](C)NC(=O)[C@H](CC(=O)O)NC(=O)[C@H](CC(=O)O)NC1=O)NC(=O)[C@H](CC(C)(C)C)NC(=O)[C@H](CC(=O)O)NC2=O (stereo partly drawn) [I-827] ?
7.89

What pIC50 value was documented for this compound, CC(=O)N1CCC[C@]12CC=CCCCC1(CCCC=CCCCCCC[C@@](C)(C(=O)N[C@@H](Cc3ccccc3)C(=O)N[C@@H](Cc3c[nH]c4ccccc34)C(=O)N[C@@H](CCC(N)=O)C(N)=O)NC(=O)[C@H](C(C)C)NC(=O)[C@H](Cc3cccc(F)c3)NC(=O)[C@H](C)NC(=O)[C@H](C)NC(=O)[C@H](CC(=O)O)NC(=O)[C@H](CC(=O)O)NC1=O)NC(=O)[C@H](C)NC(=O)[C@H](CC(=O)O)NC2=O (stereo partly drawn) ?
5.42

What pIC50 value was documented for this compound, CC(=O)N1CCC[C@]12CC=CCCCC1(CCCC=CCCCCCC[C@@](C)(C(=O)N[C@@H](Cc3ccccc3)C(=O)N[C@@H](Cc3csc4ccccc34)C(=O)N[C@@H](CCC(N)=O)C(N)=O)NC(=O)[C@H](C)NC(=O)[C@H](Cc3cccc(C(F)(F)F)c3)NC(=O)[C@H](C)NC(=O)[C@H](C)NC(=O)[C@H](CC(=O)O)NC(=O)[C@H](CC(=O)O)NC1=O)NC(=O)[C@H](C)NC(=O)[C@H](CC(=O)O)NC2=O (stereo partly drawn) [I-377] ?
5.88

Data origin, for the record: patent US20240116985A1
